Molecular target: T1, Recombinant biotinylated Human CD19 Protein-Fc (Kactus, CD2-HE121) (human, UniProt P15391 20-291, biotinylated)
T1 construct: Control antigen; also called CD19-Fc-Bio; Kactus-CD19-FC-Bio; not shown: Fc tag
T1 sequence (looked up): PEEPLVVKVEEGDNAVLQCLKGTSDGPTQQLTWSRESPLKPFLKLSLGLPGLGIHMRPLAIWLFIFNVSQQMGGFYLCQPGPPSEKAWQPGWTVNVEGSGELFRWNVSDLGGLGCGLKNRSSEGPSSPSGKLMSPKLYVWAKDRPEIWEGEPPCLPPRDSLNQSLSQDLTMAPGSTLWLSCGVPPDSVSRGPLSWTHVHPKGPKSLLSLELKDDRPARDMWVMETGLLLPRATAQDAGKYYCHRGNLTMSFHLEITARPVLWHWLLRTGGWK
Experiment: phage ELISA
READOUT LABEL: binding result

binding result in this record for phage monoclone #7 (scFv, also called scFv7) scFv: QSVVTQPPSVSAAPGQKATISCSGSSSNIGNNDVSWYQQLPGTAPKLLIQDNDKRPSGIPDRFSGSKSGTSATLGITGLQTGDEADYYCAVWDSSLSAAVFGPGTKVTVLGSRGGGGSGGGGSGGGGSLEMAEVQLVQSGAEVKKPGESLKISCKGSGYSFTSYWIGWVRQMPGKGLEWMGIIYPDDSDTTYSPSFQGQVTMSVDKSISTAYLQWNSLQASDTAMYYCARMSLTSYLATDGWGQGTLVTVSS : no binding

binding result recorded for this binder, phage monoclone #9 (scFv, also called scFv9) scFv: QPVLTQPPSVSGSPGQSVTISCTGTSDDIGNYKRVSWYQQPPGTAPKLMIYEVTNRPPGVPNRFSGSKSGNTASLTISGLQAEDEADYYCSSYASGDTYVFGTGTKVTVLGSRGGGGSGGGGSGGGGSLEQVQLVQSGAEVEKPGASVKISCKASTYTFTNYYIHWVRQAPGQGLEWMGMINPSGDTTSYAQKFQGRVTMTRDTSTSTVYMELSSLRSEDTAVYYCARLSWYWGGSFDDWGQGTLVTVSS , is no binding

Lookup result for phage monoclone #10 (scFv, also called scFv10) scFv: QSVVTQPPSVSGAPGQRVTISCTGSSSNIGAGYDVHWYQQLPGTAPKLLIYGNINRPSGVPDRFSGSKSGTSASLAITGLQAEDEADYYCGTWDNSLSAHYVFGTGTKVTVLGSRGGGGSGGGGSGGGGSLEEVQLLESGGGLVKPGGSLRLSCAASGFTFNNYTMNWVRQAPGKGLEWVSSISSSSSYIYYADSVKGRFTISRDNAKNSLFLQMNSLRGEDTAVYYCARYFSGSAGDYWGQGTLVTVSS ; measured binding result: no binding

Reported binding result of phage monoclone #32 (scFv, also called scFv32) scFv: QVQLVESGGGLVKPGGSLRLSCAASGFTFSSYSMNWVRQAPGKGLEWVSSISSSSSYIYYADSVKGRFTISRDNAKNSLYLQMNSLRAEDTAVYYCARGNPWYGVDYWGQGTLVTVSSTSGGGGSGGGGSGGGGSELQSVLTQPPSVSAAPGQKVTISCSGSNSNIGNNYVSWYQQLPGTAPKRLIYDNNKRPSGIPDRFSGSKSGTSATLGITGLQTGDEADYYCGIWDSSLDAYVFGTGTKVTVLG : no binding

Documented binding result of phage monoclone #35 (scFv, also called scFv35) scFv: QSVLTQPPSVSAAPGQKVTISCSGSSSNIGNNYVSWYQQLPGTAPKLLIYDNNKRPSGIPDRFSGSKSGTSATLGITGLQTGDEADYYCGTWDSSLSAVVFGGGTKLTVLGSRGGGGSGGGGSGGGGSLEMAQVQLVESGGGLVQPGGSLRLSCAASGFTFSSYAMSWVRQTPGKGLEWVSTITDSGDITYYTASVQGRFTISRDNSKNTLYLQMNSLRAEDTAVYYCARMSSHWYFSADYWGQGTLVTVSS : no binding

Others:
For this binder ( phage monoclone #6 (scFv, also called scFv6) scFv: NFMLTQPHSVSESPGKTVTISCTGNSGSIARNYVQWYQQRPGSAPTMLIYEDNRRPSGVPDRFSGSIDSSSNSASLTISGLKTEDEADYYCQSYDDNTSWVFGGGTKLTVLGSRGGGGSGGGGSGGGGSLEMAEVQLVQSGAEVKKPGSSVKVSCKASGGTFSSNAITWVRQAPGQGLEWMGGIIPMFGTTDYAQKFQGRVTMTADESTSTAYMELRSLRSEDTAVYYCARDGGGRHPYYYYGMDVWGQGTTVTVSS ), measured binding result is no binding
